target: human Tissue Factor (hTF), endogenously expressed on human TF-positive cells (human, UniProt P13726 33-295); assay: cell-based or functional assay
Field: % GM-CSF, 2.56 nM antibody, MDA-MB-231 cells + FVIIa. Provide a value for each of the binders that follow.

Form field % GM-CSF, 2.56 nM antibody, MDA-MB-231 cells + FVIIa, entry anti-TF antibody 54E (antibody, human IgG1, V domains shown, Human IgG1) VH: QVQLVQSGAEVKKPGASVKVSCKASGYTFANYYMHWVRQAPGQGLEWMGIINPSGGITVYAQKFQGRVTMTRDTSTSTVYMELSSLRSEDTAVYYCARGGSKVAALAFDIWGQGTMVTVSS VL: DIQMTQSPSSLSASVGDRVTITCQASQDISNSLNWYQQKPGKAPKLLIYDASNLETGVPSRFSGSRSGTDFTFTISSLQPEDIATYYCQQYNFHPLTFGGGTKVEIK : 38%

Form field % GM-CSF, 2.56 nM antibody, MDA-MB-231 cells + FVIIa, entry anti-TF antibody 25A (antibody, human IgG1, V domains shown, Human IgG1) VH: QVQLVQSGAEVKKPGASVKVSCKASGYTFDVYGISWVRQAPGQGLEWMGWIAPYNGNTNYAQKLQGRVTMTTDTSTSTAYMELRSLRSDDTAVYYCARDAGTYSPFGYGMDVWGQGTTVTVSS VL: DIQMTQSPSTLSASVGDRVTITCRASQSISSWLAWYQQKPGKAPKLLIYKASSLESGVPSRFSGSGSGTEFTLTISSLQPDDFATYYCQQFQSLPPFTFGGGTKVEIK : 57%

Form field % GM-CSF, 2.56 nM antibody, MDA-MB-231 cells + FVIIa, entry anti-TF antibody 43D8 (antibody, human IgG1, kappa, V domains shown, Human IgG1) VH: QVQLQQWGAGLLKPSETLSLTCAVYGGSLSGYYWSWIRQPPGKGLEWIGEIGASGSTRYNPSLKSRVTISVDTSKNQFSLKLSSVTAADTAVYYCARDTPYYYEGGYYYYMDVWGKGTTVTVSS VL: EIVLTQSPGTLSLSPGERATLSCRASQSVSSSFLAWYQQKPGQAPRLLIYGAYSRATGIPDRFSGSGSGTDFTLTISRLEPEDFAVYYCQQAGVVPYTFGGGTKVEIKR : 57%

Form field % GM-CSF, 2.56 nM antibody, MDA-MB-231 cells + FVIIa, entry anti-TF antibody 25G1 (antibody, human IgG1, kappa, V domains shown, Human IgG1) VH: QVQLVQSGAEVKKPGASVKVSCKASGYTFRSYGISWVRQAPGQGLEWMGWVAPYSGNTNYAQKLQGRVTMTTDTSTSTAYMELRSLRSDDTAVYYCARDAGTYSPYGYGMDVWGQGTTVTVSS VL: DIQMTQSPSTLSASVGDRVTITCRASHSIDSWLAWYQQKPGKAPKLLIYKASYLESGVPSRFSGSGSGTEFTLTISSLQPDDFATYYCQLFQSLPPFTFGGGTKVEIKR : 48%

Form field % GM-CSF, 2.56 nM antibody, MDA-MB-231 cells + FVIIa, entry anti-TF antibody 43B7 (antibody, human IgG1, V domains shown) VH: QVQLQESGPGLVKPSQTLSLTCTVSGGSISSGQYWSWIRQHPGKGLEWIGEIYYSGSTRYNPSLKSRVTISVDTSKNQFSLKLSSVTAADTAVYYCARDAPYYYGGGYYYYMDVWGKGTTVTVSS VL: EIVLTQSPGTLSLSPGERATLSCRASESVDSSYLAWYQQKPGQAPRLLIYGADSRATGIPDRFSGSGSGTDFTLTISRLEPEDFAVYYCQQDGVVPYTFGGGTKVEIK : 50%

Form field % GM-CSF, 2.56 nM antibody, MDA-MB-231 cells + FVIIa, entry anti-TF antibody 25A5 (antibody, human IgG1, kappa, V domains shown) VH: QVQLVQSGAEVKKPGASVKVSCKASGYTFDVYGISWVRQAPGQGLEWMGWIAPYSGNTNYAQKLQGRVTMTTDTSTSTAYMELRSLRSDDTAVYYCARDAGTYSPFGYGMDVWGQGTTVTVSS VL: DIQMTQSPSTLSASVGDRVTITCRASESISNWLAWYQQKPGKAPKLLIYKAYSLEYGVPSRFSGSGSGTEFTLTISSLQPDDFATYYCQQFQKLPPFTFGGGTKVEIKR : 72%

Form field % GM-CSF, 2.56 nM antibody, MDA-MB-231 cells + FVIIa, entry anti-TF antibody 43B1 (antibody, human IgG1, V domains shown) VH: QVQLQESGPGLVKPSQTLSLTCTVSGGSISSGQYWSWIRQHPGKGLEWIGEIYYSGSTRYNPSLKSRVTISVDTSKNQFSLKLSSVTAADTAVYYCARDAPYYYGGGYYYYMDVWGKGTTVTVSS VL: EIVLTQSPGTLSLSPGERATLSCRASESVDSSYLAWYQQKPGQAPRLLIYGASTRQTGIPDRFSGSGSGTDFTLTISRLEPEDFAVYYCQQAGVVPYTFGGGTKVEIK : 50%

Form field % GM-CSF, 2.56 nM antibody, MDA-MB-231 cells + FVIIa, entry anti-TF antibody 25G9 (antibody, human IgG1, kappa, V domains shown, Human IgG1) VH: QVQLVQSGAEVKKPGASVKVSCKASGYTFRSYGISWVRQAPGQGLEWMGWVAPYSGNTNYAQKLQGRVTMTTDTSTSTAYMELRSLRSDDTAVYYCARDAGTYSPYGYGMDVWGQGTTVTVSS VL: DIQMTQSPSTLSASVGDRVTITCQASQSIDSWLAWYQQKPGKAPKLLIYSASYLESGVPSRFSGSGSGTEFTLTISSLQPDDFATYYCQRFQSLPPFTFGGGTKVEIKR : 60%

Form field % GM-CSF, 2.56 nM antibody, MDA-MB-231 cells + FVIIa, entry anti-TF antibody 39A (antibody, human IgG1, V domains shown, Human IgG1) VH: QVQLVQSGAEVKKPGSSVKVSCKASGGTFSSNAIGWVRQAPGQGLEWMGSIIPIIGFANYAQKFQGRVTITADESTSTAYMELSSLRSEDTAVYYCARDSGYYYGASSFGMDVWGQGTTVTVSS VL: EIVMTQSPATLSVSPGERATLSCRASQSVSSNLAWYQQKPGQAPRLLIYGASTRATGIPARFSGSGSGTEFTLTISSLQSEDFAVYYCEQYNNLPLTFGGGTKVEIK : 42%

Form field % GM-CSF, 2.56 nM antibody, MDA-MB-231 cells + FVIIa, entry anti-TF antibody 25G (antibody, human IgG1, kappa, V domains shown, Human IgG1) VH: QVQLVQSGAEVKKPGASVKVSCKASGYTFRSYGISWVRQAPGQGLEWMGWVAPYNGNTNYAQKLQGRVTMTTDTSTSTAYMELRSLRSDDTAVYYCARDAGTYSPYGYGMDVWGQGTTVTVSS VL: DIQMTQSPSTLSASVGDRVTITCRASQSISSWLAWYQQKPGKAPKLLIYKASSLESGVPSRFSGSGSGTEFTLTISSLQPDDFATYYCQQFQSLPPFTFGGGTKVEIKR : 77%

Form field % GM-CSF, 2.56 nM antibody, MDA-MB-231 cells + FVIIa, entry anti-TF antibody 43D (antibody, human IgG1, V domains shown) VH: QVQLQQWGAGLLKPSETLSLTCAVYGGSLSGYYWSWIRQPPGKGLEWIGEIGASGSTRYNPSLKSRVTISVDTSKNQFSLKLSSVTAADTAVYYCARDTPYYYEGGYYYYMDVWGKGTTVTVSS VL: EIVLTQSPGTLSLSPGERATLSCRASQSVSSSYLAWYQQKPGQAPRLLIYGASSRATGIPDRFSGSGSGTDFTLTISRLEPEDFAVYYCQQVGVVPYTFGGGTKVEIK : 56%
